Sourced from PubChem BioAssay (NCATS)

system: KB-3-1; experiment: Cytotoxic Profiling of Annotated Libraries Using Quantitative High-Throughput Screening (AID 1296008); conditions: Five cell lines viability, CellTiter-Glo ATP luminescence, 48-72 h; active compounds read low; note: % is set by controls: 0 for no effect and ±100 for the full control effect; nearly all actives have a fitted effect of over 60% in size
Inconclusive results are not listed.
measured property: max response (%)
One number for each entry, in %.

Solved entries:
* C/C=C(\C)C(=O)O[C@@H]1CC2[C@@H](CC=C3C[C@@H](O[C@H]4C[C@H](OC)[C@H](O[C@H]5C[C@H](OC)[C@H](O[C@@H]6O[C@H](C)[C@@H](O[C@H]7C[C@H](OC)[C@H](O[C@@H]8O[C@H](CO)[C@@H](O)[C@H](O)[C@H]8O)[C@@H](C)O7)[C@H](OC)[C@H]6O)[C@@H](C)O5)[C@@H](C)O4)CC[C@@]32C)[C@@]2(O)CC[C@H](C(C)=O)[C@@]12C (some centres undefined) | 8.46
* Cc1ccc(C)c(OCCn2cc(C(=O)O)c3ccccc32)c1 | 3.13
* NC(=O)c1cccc(-c2cc(OC(=O)NC3CCCCC3)ccc2O)c1 | -19.2

Would you kindly share the measured max response for C=C[C@H]1C(O[C@@H]2O[C@H](CO)[C@@H](O)[C@H](O)[C@H]2O)OC=C2C(=O)N3CCc4c([nH]c5ccccc45)[C@H]3C[C@H]21 (some centres undefined) ?
3.99

* * *

tested on: OV90; assay: Primary qHTS to identify gynecologic anti-cancer compounds using libraries of approved drugs and bioactive compounds (AID 1345084); conditions: Gynecologic cancer cell panel viability, ATPlite luminescence, 48 h; series mostly up to 57.5 µM; note: potency is the fitted concentration of half-maximal effect; nearly all actives have a fitted effect of over 55% in size
Records with an inconclusive call do not appear. Active and inactive are the calls of the source. The call rests on the fitted dose curve; in most records, active means well fitted cell-killing curve with a large enough effect; inconclusive means small, poorly fitted or top-dose-only effect, or effect the other way; inactive means flat fitted curve, though single readings scatter.
Exercise: state measured Potency for each of the compounds provided.

Solved entries:
* c1cn2cc(-c3ccc4cn[nH]c4c3)nc(Nc3ccc(N4CCOCC4)cc3)c2n1 | 1.78 µM (active)
* Cc1ccc(NC(=O)c2ccc(CN3CC[C@H](N(C)C)C3)c(C(F)(F)F)c2)cc1Nc1nccc(-c2cncnc2)n1 | 5.01 µM (active)

Give one value of Potency per listed compound.
1. Nc1ccc(-c2cccc3c(=O)cc(N4CCOCC4)oc23)cc1
2. O=C(c1ccccc1)c1ccc2nc(NC(=O)c3csc(C4CCN(c5ncnc6ccsc56)CC4)n3)[nH]c2c1
3. CN(C)C/C=C/C(=O)Nc1cccc(C(=O)Nc2ccc(Nc3nccc(-c4cccnc4)n3)cc2)c1
4. Cc1ccc(C(=O)Nc2noc3ccccc23)cc1
5. CCS(=O)(=O)N1CCN(c2ccc(Nc3ncc(C(N)=O)c(NC4CC4)n3)cc2)CC1

1: 11.2 µM (active); 2: 17.8 µM (active); 3: 10 µM (active); 4: 11.2 µM (active); 5: 12.6 µM (active)

Give one value of Potency per listed compound.
1. CC(=O)O[C@H]1CC(C)(C)CC2[C@@]13[C@H](O)C[C@]1(C)[C@@]2(CCC2[C@@]4(C)CC[C@H](O[C@@H]5OC[C@H](O[C@@H]6O[C@H](CO)[C@@H](O)[C@H](O)[C@H]6O[C@@H]6OC[C@@H](O)[C@H](O)[C@H]6O)[C@H](O)[C@H]5O[C@@H]5O[C@H](CO)[C@@H](O)[C@H](O)[C@H]5O)C(C)(C)C4CC[C@]21C)O[C@@H]3O (stereo partly specified)
2. Cc1cc(Nc2ccc(NC(=O)c3ccc(Nc4ccnc5ccccc45)cc3)cc2)nc(N)n1
3. Nc1nc2c(c(=O)[nH]1)C[C@@H](CCc1ccc(C(=O)N[C@@H](CCC(=O)O)C(=O)O)cc1)CN2

1. 3.16 µM (active)
2. 3.98 µM (active)
3. 0.501 µM (active)
